- Test system: Poly(dA-dU)oligonucleotide
- ASSAY_NOTES: Binding affinity to polyA-polyU RNA (unknown origin) assessed as change in melting temperature in sodium cacodylate buffer at pH 7 at compound:polynucleotide concentration ratio of 0.3 by UV/vis spectrophotometric analysis
- Format: nucleic-acid assay
Returns: string. Value is fulfilled if measured ΔTm is below 10 °C, and not fulfilled if it is greater than or equal to it.

1) N#Cc1c(N2CCNCC2)c2ccc(N3CCNCC3)cc2n2c1nc1cccnc12 not fulfilled
2) CC(C)CNc1c(C#N)c2nc3cccnc3n2c2ccccc12 fulfilled
3) N#Cc1c(N2CCNCC2)c2ccc(N3CCNCC3)cc2n2c1nc1ncccc12 not fulfilled
4) CC(C)CNc1c(C#N)c2nc3ncccc3n2c2ccccc12 fulfilled
5) CN(C)CCCNc1ccc2cc(C#N)c3nc4ncccc4n3c2c1 fulfilled
6) CN(C)CCCNc1ccc2cc(C#N)c3nc4cccnc4n3c2c1 fulfilled
